Assay: Hydrolisis rate of prodrug in whole rat blood (Franz-type cell, phenytoin measured by HPLC)
Assay type: in vitro ADME
Conditions: rat, whole blood, whole rat blood, 37 °C, time 7.00 min, mean of replicates; read-out: % HYDROLISIS IN WHOLE BLOOD, m ± s.d.
readout-name: metabolised at 7 min (%)
API: value field is a number in %; no unit string.

Req: If you can, please state the reported metabolised at 7 min value of O=C1NC(c2ccccc2)(c2ccccc2)C(=O)N1COP(=O)(O)O .
Resp: 33.2

----------
Experiment: Hydrolisis rate of prodrug in whole rat blood (Franz-type cell, phenytoin measured by HPLC)
Type: in vitro ADME
Conditions: rat, whole blood, whole rat blood, 37 °C, time 0.25 min, mean of replicates; read-out: % HYDROLISIS IN WHOLE BLOOD, m ± s.d.
readout-name: metabolised at 15 s (%)
API: value field is a number in %; no unit string.

Req: If you can, please state the reported metabolised at 15 s value of O=C1NC(c2ccccc2)(c2ccccc2)C(=O)N1COP(=O)(O)O .
Resp: 4.72

----------
Assay: Hydrolisis rate of prodrug in whole rat blood (Franz-type cell, phenytoin measured by HPLC)
Assay type: in vitro ADME
Conditions: rat, whole blood, whole rat blood, 37 °C, prodrug 40 µg/ml, time 48.00 min, replicate 3; read-out: % HYDROLISIS IN WHOLE BLOOD
Where a name gives a salt, the structure may show the parent alone.
readout-name: metabolised at 0.8 h (%)
API: value field is a number in %; no unit string.

Req: If you can, please state the reported metabolised at 0.8 h value of CN1CCN(CC(=O)OCN2C(=O)NC(c3ccccc3)(c3ccccc3)C2=O)CC1 [IX, dihydrochloride] .
Resp: 105

----------
Experiment: Hydrolisis rate of prodrug in whole rat blood (Franz-type cell, phenytoin measured by HPLC)
Type: in vitro ADME
Conditions: rat, whole blood, whole rat blood, 37 °C, time 189.00 min, mean of replicates; read-out: % HYDROLISIS IN WHOLE BLOOD, m ± s.d.
readout-name: metabolised at 3.15 h (%)
API: value field is a number in %; no unit string.

Req: If you can, please state the reported metabolised at 3.15 h value of O=C1NC(c2ccccc2)(c2ccccc2)C(=O)N1COP(=O)(O)O [XI] .
Resp: 88.5

----------
Assay: Hydrolisis rate of prodrug in whole rat blood (Franz-type cell, phenytoin measured by HPLC)
Assay type: in vitro ADME
Conditions: rat, whole blood, whole rat blood, 37 °C, prodrug 40 µg/ml, time 0.33 min, replicate 2; read-out: % HYDROLISIS IN WHOLE BLOOD
Structures can show the parent of a compound that is named as a salt.
readout-name: metabolised at 20 s
Just the number plus its unit, please.

Req: If you can, please state the reported metabolised at 20 s value of CN1CCN(CC(=O)OCN2C(=O)NC(c3ccccc3)(c3ccccc3)C2=O)CC1 [IX, dihydrochloride] .
Resp: 95.8%

----------
Experiment: Hydrolisis rate of prodrug in whole rat blood (Franz-type cell, phenytoin measured by HPLC)
Type: in vitro ADME
Conditions: rat, whole blood, whole rat blood, 37 °C, prodrug 40 µg/ml, time 1.5 min, replicate 3; read-out: % HYDROLISIS IN WHOLE BLOOD
Where a name gives a salt, the structure may show the parent alone.
readout-name: metabolised at 0.025 h (%)
API: value field is a number in %; no unit string.

Req: If you can, please state the reported metabolised at 0.025 h value of CN1CCN(CC(=O)OCN2C(=O)NC(c3ccccc3)(c3ccccc3)C2=O)CC1 [IX, dihydrochloride] .
Resp: 109

----------
Assay: Hydrolisis rate of prodrug in whole rat blood (Franz-type cell, phenytoin measured by HPLC)
Type: in vitro ADME
Conditions: rat, whole blood, whole rat blood, 37 °C, time 189.00 min, replicate 1; read-out: % HYDROLISIS IN WHOLE BLOOD
readout-name: metabolised at 3.15 h (%)
API: value field is a number in %; no unit string.

Req: If you can, please state the reported metabolised at 3.15 h value of O=C1NC(c2ccccc2)(c2ccccc2)C(=O)N1COP(=O)(O)O .
Resp: 79.3

----------
Test: Hydrolisis rate of prodrug in whole rat blood (Franz-type cell, phenytoin measured by HPLC)
Type: in vitro ADME
Settings: rat, whole blood, whole rat blood, 37 °C, prodrug 40 µg/ml, time 48.00 min, mean of replicates; read-out: % HYDROLISIS IN WHOLE BLOOD, m ± s.d.
Counter-ions that a name gives are not always drawn.
readout-name: metabolised at 0.8 h (%)
API: value field is a number in %; no unit string.

Req: If you can, please state the reported metabolised at 0.8 h value of CN1CCN(CC(=O)OCN2C(=O)NC(c3ccccc3)(c3ccccc3)C2=O)CC1 [IX, dihydrochloride] .
Resp: 100

----------
Assay: Hydrolisis rate of prodrug in whole rat blood (Franz-type cell, phenytoin measured by HPLC)
Format: in vitro ADME
Settings: rat, whole blood, whole rat blood, 37 °C, prodrug 40 µg/ml, time 0.33 min, replicate 1; read-out: % HYDROLISIS IN WHOLE BLOOD
Where a name gives a salt, the structure may show the parent alone.
readout-name: metabolised at 20 s (%)
API: value field is a number in %; no unit string.

Req: If you can, please state the reported metabolised at 20 s value of CN1CCN(CC(=O)OCN2C(=O)NC(c3ccccc3)(c3ccccc3)C2=O)CC1 [IX, dihydrochloride] .
Resp: 85.6

----------
Assay: Hydrolisis rate of prodrug in whole rat blood (Franz-type cell, phenytoin measured by HPLC)
Type: in vitro ADME
Settings: rat, whole blood, whole rat blood, 37 °C, prodrug 40 µg/ml, time 48.00 min, replicate 2; read-out: % HYDROLISIS IN WHOLE BLOOD
Counter-ions that a name gives are not always drawn.
readout-name: metabolised at 0.8 h (%)
API: value field is a number in %; no unit string.

Req: If you can, please state the reported metabolised at 0.8 h value of CN1CCN(CC(=O)OCN2C(=O)NC(c3ccccc3)(c3ccccc3)C2=O)CC1 [IX, dihydrochloride] .
Resp: 99.4

----------
Test: Hydrolisis rate of prodrug in whole rat blood (Franz-type cell, phenytoin measured by HPLC)
Format: in vitro ADME
Conditions: rat, whole blood, whole rat blood, 37 °C, time 2.00 min, replicate 1; read-out: % HYDROLISIS IN WHOLE BLOOD
readout-name: metabolised at 2 min (%)
API: value field is a number in %; no unit string.

Req: If you can, please state the reported metabolised at 2 min value of O=C1NC(c2ccccc2)(c2ccccc2)C(=O)N1COP(=O)(O)O .
Resp: 10.5

----------
Test: Hydrolisis rate of prodrug in whole rat blood (Franz-type cell, phenytoin measured by HPLC)
Assay type: in vitro ADME
Conditions: rat, whole blood, whole rat blood, 37 °C, prodrug 40 µg/ml, time 48.00 min, replicate 1; read-out: % HYDROLISIS IN WHOLE BLOOD
Where a name gives a salt, the structure may show the parent alone.
readout-name: metabolised at 0.8 h (%)
API: value field is a number in %; no unit string.

Req: If you can, please state the reported metabolised at 0.8 h value of CN1CCN(CC(=O)OCN2C(=O)NC(c3ccccc3)(c3ccccc3)C2=O)CC1 [IX, dihydrochloride] .
Resp: 97.2

----------
Test: Hydrolisis rate of prodrug in whole rat blood (Franz-type cell, phenytoin measured by HPLC)
Format: in vitro ADME
Conditions: rat, whole blood, whole rat blood, 37 °C, time 60.00 min, mean of replicates; read-out: % HYDROLISIS IN WHOLE BLOOD, m ± s.d.
Method: To study the hydrolisis of prodrugs in blood, Franz-type permeation cells of the company Crown Glass Co. Somerville, N.Y. have been used. The receiving compartment is used which allows for water recirculation using a glass packet in order to keep the system at 37 °C. […] After anesthesizing the rat, blood was drawn by cardiac puncture. […] The system was kept at 37 °C and stirred magnetically, samples were taken (1 ml) and phenytoin was measured in each of them by HPLC. […]
readout-name: metabolised at 1 h (%)
API: value field is a number in %; no unit string.

Req: If you can, please state the reported metabolised at 1 h value of O=C1NC(c2ccccc2)(c2ccccc2)C(=O)N1COP(=O)(O)O .
Resp: 77.7

----------
Experiment: Hydrolisis rate of prodrug in whole rat blood (Franz-type cell, phenytoin measured by HPLC)
Format: in vitro ADME
Details: rat, whole blood, whole rat blood, 37 °C, prodrug 40 µg/ml, time 0.50 min, replicate 1; read-out: % HYDROLISIS IN WHOLE BLOOD
Where a name gives a salt, the structure may show the parent alone.
Measured metabolised at 0.5 min values are reported for all entries that follow.
API: value field is a number in %; no unit string.

* O=C1NC(c2ccccc2)(c2ccccc2)C(=O)N1COP(=O)(O)O | 6.37

Req: If you can, please state the reported metabolised at 0.5 min value of CN1CCN(CC(=O)OCN2C(=O)NC(c3ccccc3)(c3ccccc3)C2=O)CC1 [IX, dihydrochloride] .
Resp: 92.7
